Reported Tm values for the following variants.
B1: DNA-binding protein HU 1, P08821 (parent)
chain: MNKTELINAVAEASELSKKDATKAVDSVFDTILDALKNGDKIQLIGFGNFEVRERSARKGRNPQTGEEIEIPASKVPAFKPGKALKDAVAGK

- Variants of: B1
- run parameters: Bacillus subtilis (strain 168); pH 7; Thermal; CD; Sodium phosphate 5 mM; NaCl 0.2 M; reversible: yes; whole UniProt chain shown
metric name: Tm

sequence variant: D34E N38K
value observed: 52.1 °C
//
sequence variant: I42V
value observed: 52.6 °C
//
sequence variant: S27A
value observed: 54.2 °C
//
sequence variant: E15G S27A D34E N38K I42V
value observed: 71.3 °C
//
sequence variant: E15G
value observed: 60.4 °C
